Molecular target: human D1 receptors (Homo sapiens)
Construct: expressed in transfected cells; host or cells: Ltk- cells (mouse fibroblasts); membrane preparation
Sequence (P21728 whole entry): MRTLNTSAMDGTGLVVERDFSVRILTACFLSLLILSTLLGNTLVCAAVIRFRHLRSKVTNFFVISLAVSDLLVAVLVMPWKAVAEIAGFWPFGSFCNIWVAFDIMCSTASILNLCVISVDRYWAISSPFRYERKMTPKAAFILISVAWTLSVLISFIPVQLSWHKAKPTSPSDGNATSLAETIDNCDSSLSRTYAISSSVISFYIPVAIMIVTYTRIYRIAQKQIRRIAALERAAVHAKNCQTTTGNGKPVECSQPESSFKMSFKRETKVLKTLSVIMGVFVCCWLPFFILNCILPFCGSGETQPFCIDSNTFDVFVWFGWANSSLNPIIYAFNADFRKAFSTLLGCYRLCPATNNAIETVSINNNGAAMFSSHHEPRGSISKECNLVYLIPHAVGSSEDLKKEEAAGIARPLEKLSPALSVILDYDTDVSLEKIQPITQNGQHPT
Experiment: Radioligand binding competition assay at D1 receptor
Conditions: class by Ki (D1) and selectivity (Ki D2 / Ki D1); human D1 and D2 (long variant) receptors, Ltk- cell membranes; read-out: D1 binding and D2:D1 Selectivity
Recorded measurements of Ki, one per entry

Worked set:
Ask: Supply reported Ki belonging to this compound: "CN1CCc2cc(Cl)c(O)cc2[C@H]2c3cccc(CNC4CC4)c3CC[C@@H]21"
Reply: < 5 nM

Ask: Specify measured Ki for "CN1CCc2cc(Cl)c(O)cc2[C@H]2c3cc(CN(Cc4ccccc4)C(=O)c4ccccc4)ccc3CC[C@@H]21" .
Reply: 10 to 50 nM

Ask: Quickly give me recorded Ki for "CN1CCc2cc(Cl)c(O)cc2[C@H]2c3cc(CN(Cc4ccccc4)S(C)(=O)=O)ccc3CC[C@@H]21"
Reply: < 100 nM

Ask: Please supply the value of reported Ki for the item "CC(=O)N(Cc1cccc2c1CC[C@H]1[C@H]2c2cc(O)c(Cl)cc2CCN1C)c1ccccc1"
Reply: 10 to 50 nM

Ask: Retrieve Ki measured for "CCOC(=O)Nc1ccc2c(c1)CC[C@H]1[C@H]2c2cc(O)c(Cl)cc2CCN1C" and print it.
Reply: < 5 nM

Ask: Quick one: give measured Ki for CN1CCc2cc(Cl)c(O)cc2C2c3cccc(C(=O)NCc4ccccc4)c3CCC21 (centres unmarked)
Reply: < 10 nM

Ask: Determine from records and report Ki for CN1CCN(C(=O)c2cccc3c2CCC2C3c3cc(O)c(Cl)cc3CCN2C)CC1 (centres unmarked)
Reply: 10 to 50 nM

Let us examine a further case.
Ask: Tell us which Ki value is on record for "CN1CCc2cc(Cl)c(O)cc2[C@H]2c3cccc(CNC(c4ccccc4)c4ccccc4)c3CC[C@@H]21"
Reply: < 10 nM

Where do the numbers come from? From patent US7504391B2.
